This section presents log10(Ki) values reported for Prostaglandin E2 receptor EP2 subtype (Homo sapiens) in the literature.
Values are log10 of Ki in µM.

# input Look up and report log10(Ki), with Prostaglandin E2 receptor EP2 subtype (Homo sapiens) as system, for COc1cc(CC2CCCCC2C(=O)NCc2ccc(C(=O)O)cc2)cc(OC)c1 (single isomer, unassigned)
# output -0.04

# input Please tell me the measured log10(Ki) for CCCCCCc1ccc(-c2cccn2CCCc2ccc(C(=O)O)s2)cc1 ; system: Prostaglandin E2 receptor EP2 subtype (Homo sapiens).
# output -1.64

# input Print Prostaglandin E2 receptor EP2 subtype (Homo sapiens) log10(Ki) for C=CCCc1cccc(C#C[C@@H]2[C@@H](CCCc3ccc(C(=O)O)s3)[C@H](Cl)C[C@H]2O)c1 .
# output -3.00

# input Enter log10(Ki) (test system Prostaglandin E2 receptor EP2 subtype (Homo sapiens)) for COc1ccccc1CC1CCCCC1C(=O)NCc1ccc(C(=O)O)cc1 (single isomer, unassigned)
# output 0.12

# input Under Prostaglandin E2 receptor EP2 subtype (Homo sapiens): report log10(Ki) of CCCCCC(O)c1ccc(N2C(=O)CC[C@@H]2COc2ccc(C(=O)O)cc2)cc1 (mixture of isomers) .
# output 1.36

# input Write log10(Ki) of CCCCc1cnc2c(C(=O)NCCc3ccc(C(=O)O)s3)cccc2c1 ; system used: Prostaglandin E2 receptor EP2 subtype (Homo sapiens)
# output -0.46
